assay: In vivo pharmacokinetic study of elimination phase half-life after single IV bolus; parameters: species or system Sprague Dawley rats; details: Sprague-Dawley, rat, whole blood, intravenous, I.V bolus, 5 mg/kg, rats, read-out: Elimination phase half-life (T1/2) (converted)
QUANTITY_KIND: half-life (h)
One number for each entry, in h.

Entry CC(C)c1cc(Oc2c(Cl)cc(-n3nc(C#N)c(=O)[nH]c3=O)cc2Cl)n[nH]c1=O [Resmetirom, reference compound] : reported half-life = ? 2.98

###

target: THRα (Homo sapiens, UniProt P10827); test: HTRF test of agonist-induced SRC3-2 coactivator peptide recruitment to THRα-LBD; conditions: HTRF, starting concentration 20 µM, 3-fold dilution, 10 concentrations, duplicate
Sequence (P10827 148-410 isoform P10827-2 limits assumed, other chains not shown): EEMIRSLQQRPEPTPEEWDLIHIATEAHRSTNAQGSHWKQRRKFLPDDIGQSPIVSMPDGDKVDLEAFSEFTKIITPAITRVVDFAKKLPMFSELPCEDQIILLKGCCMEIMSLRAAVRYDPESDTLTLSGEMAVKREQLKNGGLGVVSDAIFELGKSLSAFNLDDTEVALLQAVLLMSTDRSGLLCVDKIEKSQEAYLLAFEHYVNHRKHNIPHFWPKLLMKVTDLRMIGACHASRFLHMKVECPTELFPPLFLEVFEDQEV
Hi there, I'd appreciate the recorded pEC50 for every entry that follows.
Give bare numbers, as −log10 of the molar value.

CC(C)c1cc(Oc2c(Cl)cc(-n3nc(CF)c(=O)[nH]c3=O)cc2Cl)n[nH]c1=O [Compound X1, reference compound] | 7.02

Entry [2H]C([2H])([2H])C(c1cc(Oc2c(Cl)cc(-n3nc(CF)c(=O)[nH]c3=O)cc2Cl)n[nH]c1=O)C([2H])([2H])[2H] : reported pEC50 = ? 6.49

###

Hi there, I'd appreciate the recorded EC50 for every entry that follows.
biological target: THRα (Homo sapiens, UniProt P10827); experiment: HTRF test of agonist-induced SRC3-2 coactivator peptide recruitment to THRα-LBD; conditions: HTRF, starting concentration 20 µM, 3-fold dilution, 10 concentrations, duplicate

Cc1c(C(C)C)c(Oc2c(Cl)cc(-n3nc(CF)c(=O)[nH]c3=O)cc2Cl)n[nH]c1=O | > 5 µM
Cc1c(Oc2c(Cl)cc(-n3nc(CF)c(=O)[nH]c3=O)cc2Cl)n[nH]c(=O)c1C(C)C | > 5 µM

Shifting focus to the compound that follows.
Entry [2H]C([2H])([2H])C(c1c(C)c(Oc2c(Cl)cc(-n3nc(CF)c(=O)[nH]c3=O)cc2Cl)n[nH]c1=O)C([2H])([2H])[2H] : reported EC50 = ? > 5 µM
